The measured values listed here are drawn from the supplement of paper PMC6555819.

Measured PBM binding z-score values are reported for all entries that follow.
Test system: VDR:RXRa (NR concentration 270 nM, RXRa partner concentration 90 nM)
Protocol Notes: PBM binding z-score (relative to random genomic background probes); higher = stronger binding; sequences stand for … in GC…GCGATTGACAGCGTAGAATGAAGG

Sequence Record: CAGCCTAGGTCCGGGCCAGTATAGGAGGAACGTT
Test System: VDR:RXRa (NR concentration 270 nM, RXRa partner concentration 90 nM)
Property Label: PBM binding z-score
Observed Measurement: -0.982

Find the measured PBM binding z-score: item "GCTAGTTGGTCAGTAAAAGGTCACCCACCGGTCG" , target or system VDR:RXRa (NR concentration 270 nM, RXRa partner concentration 90 nM).
3.44

Find PBM binding z-score (VDR:RXRa (NR concentration 270 nM, RXRa partner concentration 90 nM)) for the entry "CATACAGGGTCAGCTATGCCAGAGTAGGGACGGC"
2.78

Lab request: please report PBM binding z-score under test system VDR:RXRa (NR concentration 270 nM, RXRa partner concentration 90 nM) for "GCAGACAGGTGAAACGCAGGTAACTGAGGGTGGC"
-0.361

Give PBM binding z-score (VDR:RXRa (NR concentration 270 nM, RXRa partner concentration 90 nM)) of the following sequence: "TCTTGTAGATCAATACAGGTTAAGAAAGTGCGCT"
1.26

Any idea what PBM binding z-score came out for "TTACCAAGGTGAGCTGAGGTCGTTGGTCCAACTC" on VDR:RXRa (NR concentration 270 nM, RXRa partner concentration 90 nM)?
3.79

Form field - read-out: PBM binding z-score; system: VDR:RXRa (NR concentration 270 nM, RXRa partner concentration 90 nM); submitted item: "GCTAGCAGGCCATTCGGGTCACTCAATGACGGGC"
3.27

For VDR:RXRa (NR concentration 270 nM, RXRa partner concentration 90 nM), provide PBM binding z-score of "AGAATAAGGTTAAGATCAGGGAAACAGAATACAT" please.
1.14

# query: PBM binding z-score | item "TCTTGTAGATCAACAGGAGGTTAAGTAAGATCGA" | system: VDR:RXRa (NR concentration 270 nM, RXRa partner concentration 90 nM)
0.844

For the record "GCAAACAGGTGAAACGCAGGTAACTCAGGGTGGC" , what value of PBM binding z-score is listed for VDR:RXRa (NR concentration 270 nM, RXRa partner concentration 90 nM)?
-0.424

Can you look up PBM binding z-score on VDR:RXRa (NR concentration 270 nM, RXRa partner concentration 90 nM) for "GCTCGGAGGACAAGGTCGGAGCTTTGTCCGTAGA" ?
-0.159

What is its PBM binding z-score for VDR:RXRa (NR concentration 270 nM, RXRa partner concentration 90 nM)? Entry: "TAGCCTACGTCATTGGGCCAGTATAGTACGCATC"
-0.617

Provide the documented PBM binding z-score with VDR:RXRa (NR concentration 270 nM, RXRa partner concentration 90 nM) as the system for "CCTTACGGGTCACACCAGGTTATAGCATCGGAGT"
4.89

Notebook: pull reported PBM binding z-score for VDR:RXRa (NR concentration 270 nM, RXRa partner concentration 90 nM), entry "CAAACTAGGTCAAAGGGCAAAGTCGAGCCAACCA"
3.83

Query for VDR:RXRa (NR concentration 270 nM, RXRa partner concentration 90 nM): what PBM binding z-score does the record show for "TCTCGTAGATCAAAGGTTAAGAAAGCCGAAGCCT" ?
1.24
